# System: Aspergillus fumigatus
# protocolNotes: Antifungal activity against Aspergillus fumigatus GIMCC 3.19 assessed as inhibition of growth incubated for 24 hrs by two-fold serial dilution method
# Assay type: functional
readout: MIC (µg/mL)
Supply the numeric figure in µg/mL, leaving out any unit text.

molecule: O=C(/C=C/C(=O)Nc1ccccc1Br)Nc1ccc2c(c1)NC(=O)C1(CCNC1=O)C2 (racemic)
MIC (µg/mL): 32
--
molecule: O=C(CN1CCC(C(=O)Nc2cccc3ccccc23)CC1)Nc1ccc2c(c1)NC(=O)C1(CCNC1=O)C2 (racemic)
MIC (µg/mL): 8
--
molecule: O=C(CN1CCC(C(=O)Nc2ccccc2)CC1)Nc1ccc2c(c1)NC(=O)C1(CCNC1=O)C2 (racemic)
MIC (µg/mL): 128

# get_value(readout='MIC', item= COc1ccccc1NC(=O)C1CCN(CC(=O)Nc2ccc3c(c2)NC(=O)C2(CCNC2=O)C3)CC1 (racemic) )
128

# get_value(readout='MIC', item= O=C(/C=C/C(=O)Nc1nc2ccccc2s1)Nc1ccc2c(c1)NC(=O)C1(CCNC1=O)C2 (racemic) )
4

# get_value(readout='MIC', item= O=C(/C=C/C(=O)Nc1ccc2c(c1)NC(=O)C1(CCNC1=O)C2)Nc1ccc(Br)cc1 (racemic) )
32

# get_value(readout='MIC', item= O=C(/C=C/C(=O)Nc1ccc2c(c1)NC(=O)C1(CCNC1=O)C2)NCc1ccccc1 (racemic) )
64
